test: from Suikov, S.; Kal'nits'kii, M.; Lutsik, O.; Plyushchakova, L.; Bondarenko, A.; Bogza, S.; Popov, A. (2007). Derivatives of 1,2,4-triazolo[4,3-b]pyridazin-6-ylhydrazine as a new training set for …
PARAMETER: logP

As a guide, the following entries are already answered.
substance_smiles=CC(=NN=c1ccc2nncn2[nH]1)c1ccncc1 parameter=logP result_value=0.93
substance_smiles=CC/C(=N/Nc1ccc2nncn2n1)c1ccccc1 parameter=logP result_value=2.15
substance_smiles=COc1ccccc1C(C)=NN=c1ccc2nncn2[nH]1 parameter=logP result_value=1.94
substance_smiles=COc1cc(C=NN=c2ccc3nncn3[nH]2)cc(OC)c1OC parameter=logP result_value=1.53
substance_smiles=CC(=NN=c1ccc2nncn2[nH]1)c1ccc(O)cc1 parameter=logP result_value=1.45
substance_smiles=CC(=NN=c1ccc2nncn2[nH]1)c1ccccn1 parameter=logP result_value=1.15

Query (molecule): CC(=NN=c1ccc2nncn2[nH]1)c1ccc(C)cc1 ; field requested: logP
2.2

Query (molecule): CC(=NN=c1ccc2nncn2[nH]1)c1cccc(O)c1 ; field requested: logP
1.46

Query (molecule): CC(=NN=c1ccc2nncn2[nH]1)c1ccccc1O ; field requested: logP
1.89

Query (molecule): CC(=NN=c1ccc2nncn2[nH]1)c1ccc(F)cc1 ; field requested: logP
2.02

Query (molecule): COc1cccc(C(C)=NN=c2ccc3nncn3[nH]2)c1 ; field requested: logP
1.97

Reference source for all entries: the SangsterLogP compilation
